Test system: 777334-354-R2-J4-PDC tumor spheroids with HUVEC/MSC, viability;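 further: spheroids exposed to compounds for 7 days before readout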
Procedure text: Anticancer human tumor 777334-354-R2-J4-PDC patient-derived pancreatic adenocarcinoma cell line growth inhibition [GQUAD]
Condition details: second compound 0.316 µM; first compound 3.16 µM; stronger effect = lower value
Just a reminder that ties go to condition not met: only viability, T/C strictly below 70% counts as condition met.

**Query** Problem: For the compound COc1ccc([C@@H](O)c2cc(-c3ncnc4cc(N5CCOCC5)ccc34)c(F)cc2Cl)nn1 + CN(C)c1ccc(Nc2c3ccc(NC(=O)CCN4CCCC4)cc3nc3cc(NC(=O)CCN4CCCC4)ccc23)cc1 , is viability, T/C under 70%?
**Result** condition met

**Query** Same thing, different compound: O=C(c1cc(Cc2n[nH]c(=O)c3ccccc23)ccc1F)N1CCN(C(=O)C2CC2)CC1 + CN(C)c1ccc(Nc2c3ccc(NC(=O)CCN4CCCC4)cc3nc3cc(NC(=O)CCN4CCCC4)ccc23)cc1
**Result** condition not met

**Query** Entry to check: O=c1[nH]cc(F)c(=O)[nH]1 + Cc1cnc(CNC(=O)c2c(=O)c3ccc(N4CCCN(C)CC4)nc3n3c2sc2ccccc23)cn1
**Result** condition not met

**Query** Please give the result for C=CC(=O)N1CCN(c2nc(=O)n(-c3c(C)ccnc3C(C)C)c3nc(-c4c(O)cccc4F)c(F)cc23)C(C)C1 (stereo unspecified) + Cc1[nH]c2ccc(F)cc2c1-c1nc2c3cccnc3c3ncccc3c2[nH]1 too.
**Result** condition not met

**Query** Record: CC(=O)O[C@H]1C(=O)[C@@]2(C)[C@H]([C@H](OC(=O)c3ccccc3)[C@]3(O)C[C@H](OC(=O)[C@H](O)[C@@H](NC(=O)c4ccccc4)c4ccccc4)C(C)=C1C3(C)C)[C@]1(OC(C)=O)CO[C@@H]1C[C@@H]2O + CN(C)c1ccc(Nc2c3ccc(NC(=O)CCN4CCCC4)cc3nc3cc(NC(=O)CCN4CCCC4)ccc23)cc1
**Result** condition met

**Query** Let us now turn to CC(C)(O)C1CCC(Nc2ccc3ncc(-c4cccc(C(F)(F)F)c4)n3n2)CC1 (stereo unspecified) + Cc1[nH]c2ccc(F)cc2c1-c1nc2c3cccnc3c3ncccc3c2[nH]1
**Result** condition met

**Query** Same read-out for CC1COCCN1c1cc(C2(O)CC3CCC(C2)O3)c2cnn(-c3ccn[nH]3)c2n1 (stereo unspecified) + Cc1cnc(CNC(=O)c2c(=O)c3ccc(N4CCCN(C)CC4)nc3n3c2sc2ccccc23)cn1 ?
**Result** condition met

**Query** Entry to check: CC1COCCN1c1cc(-c2ccnn2C)c2ccnc(-c3ccn[nH]3)c2n1 (stereo unspecified) + CN(C)c1ccc(Nc2c3ccc(NC(=O)CCN4CCCC4)cc3nc3cc(NC(=O)CCN4CCCC4)ccc23)cc1
**Result** condition met

**Query** Same question for CC1COCCN1c1cc(-c2ccnn2C)c2ccnc(-c3ccn[nH]3)c2n1 (stereo unspecified) + Cc1cnc(CNC(=O)c2c(=O)c3ccc(N4CCCN(C)CC4)nc3n3c2sc2ccccc23)cn1 please.
**Result** condition met

**Query** Input CC(C)n1c(=O)n(C)c2cnc3cc(F)c(-c4ccc(OCCCN5CCCCC5)nc4)cc3c21 + CN(C)c1ccc(Nc2c3ccc(NC(=O)CCN4CCCC4)cc3nc3cc(NC(=O)CCN4CCCC4)ccc23)cc1
**Result** condition not met

**Query** Another compound to check: O=c1[nH]cc(F)c(=O)[nH]1 + CN(C)c1ccc(Nc2c3ccc(NC(=O)CCN4CCCC4)cc3nc3cc(NC(=O)CCN4CCCC4)ccc23)cc1
**Result** condition not met

**Query** How about CC(=O)O[C@H]1C(=O)[C@@]2(C)[C@H]([C@H](OC(=O)c3ccccc3)[C@]3(O)C[C@H](OC(=O)[C@H](O)[C@@H](NC(=O)c4ccccc4)c4ccccc4)C(C)=C1C3(C)C)[C@]1(OC(C)=O)CO[C@@H]1C[C@@H]2O + Cc1[nH]c2ccc(F)cc2c1-c1nc2c3cccnc3c3ncccc3c2[nH]1 ?
**Result** condition met

**Query** Another compound to look at: CC1COCCN1c1cc(C2(S(C)(=N)=O)CC2)nc(-c2ccnc3[nH]ccc23)n1 (stereo unspecified) + Cc1cnc(CNC(=O)c2c(=O)c3ccc(N4CCCN(C)CC4)nc3n3c2sc2ccccc23)cn1
**Result** condition not met

**Query** Record: O=c1[nH]cc(F)c(=O)[nH]1 + Cc1[nH]c2ccc(F)cc2c1-c1nc2c3cccnc3c3ncccc3c2[nH]1
**Result** condition not met

**Query** Would you kindly repeat that for CC(C)n1c(=O)n(C)c2cnc3cc(F)c(-c4ccc(OCCCN5CCCCC5)nc4)cc3c21 + Cc1cnc(CNC(=O)c2c(=O)c3ccc(N4CCCN(C)CC4)nc3n3c2sc2ccccc23)cn1 ?
**Result** condition not met

**Query** Item: O=C(NO)c1cnc(N2CCN(S(=O)(=O)c3ccc4ccccc4c3)CC2)nc1 + CN(C)c1ccc(Nc2c3ccc(NC(=O)CCN4CCCC4)cc3nc3cc(NC(=O)CCN4CCCC4)ccc23)cc1
**Result** condition met

**Query** Follow-up entry: CC(C)(O)C1CCC(Nc2ccc3ncc(-c4cccc(C(F)(F)F)c4)n3n2)CC1 (stereo unspecified) + CN(C)c1ccc(Nc2c3ccc(NC(=O)CCN4CCCC4)cc3nc3cc(NC(=O)CCN4CCCC4)ccc23)cc1
**Result** condition met

**Query** Can you handle COc1ccc([C@@H](O)c2cc(-c3ncnc4cc(N5CCOCC5)ccc34)c(F)cc2Cl)nn1 + Cc1[nH]c2ccc(F)cc2c1-c1nc2c3cccnc3c3ncccc3c2[nH]1 next?
**Result** condition met

**Query** Quick one: Cc1cccc(N(C)C(=O)C2C(O)CCN2c2nc(C)cc(C(F)(F)F)c2C#N)c1 (stereo unspecified) + CN(C)c1ccc(Nc2c3ccc(NC(=O)CCN4CCCC4)cc3nc3cc(NC(=O)CCN4CCCC4)ccc23)cc1
**Result** condition not met

**Query** And CC1COCCN1c1cc(C2(O)CC3CCC(C2)O3)c2cnn(-c3ccn[nH]3)c2n1 (stereo unspecified) + Cc1[nH]c2ccc(F)cc2c1-c1nc2c3cccnc3c3ncccc3c2[nH]1 ?
**Result** condition met

**Query** Please give the result for CC1COCCN1c1cc(C2(S(C)(=N)=O)CC2)nc(-c2ccnc3[nH]ccc23)n1 (stereo unspecified) + CN(C)c1ccc(Nc2c3ccc(NC(=O)CCN4CCCC4)cc3nc3cc(NC(=O)CCN4CCCC4)ccc23)cc1 too.
**Result** condition not met
